Values compiled from PubChem BioAssay (NCATS).

- ASSAY_SYSTEM: Cellular tumor antigen p53 (Homo sapiens)
- ASSAY: Primary qHTS for small molecule compounds that upregulate eGFP-tagged delta133p53alpha (in N-terminal) cells. (AID 2060322);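 note: cells pre-induced with doxycycline then dosed without doxycycline; 0% = DMSO vehicle and 100% = reference activator; nearly all actives have a fitted effect of over 75% in size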
- RUN_CONDITIONS: NCI-H358 eGFP-delta133p53alpha fluorescence, 24 h; active compounds read high
Results filed as inconclusive are left out. Peptide text beside a SMILES is read from it. * marks the point of attachment. Cbz = O=C(OCc1ccccc1)*; CH2F = FC*
MEASURED_METRIC: activation (%)
Reply with just the number (in %).

C=C1[C@H]2CC[C@]3(O)[C@@](CC[C@@H]4[C@](C)(C(=O)O)CCC[C@]43C)(C2)[C@H]1OC(=O)/C(C)=C\C = 15.2
CC(C)C[C@H](NC(=O)[C@H](O)[C@H](N)Cc1ccccc1)C(=O)O = 3.56
COC(=O)C1=COC(OC2OC(CO)C(O)C(O)C2O)C2C1C=CC2(O)CO (stereo not given) = -3.57

Prompt: GET /values?readout=activation&item= COC(=O)CC[C@H](NC(=O)[C@H](CC(C)C)NC(=O)OCc1ccccc1)C(=O)N[C@@H](Cc1cnc[nH]1)C(=O)N[C@@H](CC(=O)OC)C(=O)CF (Cbz-LE(OMe)HD(OMe)-CH2F)
Completion: 23.7

Prompt: GET /values?readout=activation&item= CN=C(N)NCCC[C@H](N)C(=O)O
Completion: -4.6

Prompt: GET /values?readout=activation&item= CCOC(=O)CCNc1cc(N2CCc3ccccc3CC2)nc(-c2cccnc2)n1
Completion: 7

---

- ASSAY: BET inhibitor-based combinations targeting novel dependencies in MECOM-rearranged (r) AML: AML-194 cell line (AID 2202237; note: nearly all actives have a fitted effect of over 40% in size)
- RUN_CONDITIONS: AML-194 (MECOM-r AML) viability, CellTiter-Glo, 48 h; series mostly up to 46 µM
Records with an inconclusive call do not appear. Activity calls are given as the source filed them. Calls come from the whole dose curve; as a rule, active = well fitted inhibition curve with a large enough effect; inconclusive = small, poorly fitted or top-dose-only effect; inactive = flat fitted curve, though single readings scatter.
Select the correct class. Options are label 1 for active, label 0 for inactive and nothing else.

CO[C@@H]1[C@@H](OC(N)=O)[C@@H](O)[C@H](Oc2ccc3c(O)c(NC(=O)c4ccc(O)c(CC=C(C)C)c4)c(=O)oc3c2C)OC1(C)C = label 0

Prompt: Given NC12CC3CC(CC(C3)C1)C2 , state the outcome it received in this test.
Completion: label 0

Prompt: Given CCc1ccc(OCc2ccccc2C(=O)Nc2ccc3nc(C)cc(N)c3c2)cc1 , state the outcome it received in this test.
Completion: label 1

Prompt: Given N#C[C@@H]1C[C@@H]2C[C@@H]2N1C(=O)[C@@H](N)C12CC3CC(CC(O)(C3)C1)C2 , state the outcome it received in this test.
Completion: label 1

Prompt: Given O=C(/C=C/C#Cc1cccc(NS(=O)(=O)c2ccccc2)c1)NO , state the outcome it received in this test.
Completion: label 1

Prompt: Given CC(C)C[C@H](NC(=O)[C@H](CCc1ccccc1)NC(=O)CN1CCOCC1)C(=O)N[C@@H](Cc1ccccc1)C(=O)N[C@@H](CC(C)C)C(=O)[C@@]1(C)CO1 , state the outcome it received in this test.
Completion: label 1

Prompt: Given CC1=C(CC(=O)O)c2cc(F)ccc2C1=Cc1ccc(S(C)=O)cc1 (centres undefined) , state the outcome it received in this test.
Completion: label 0

Prompt: Given N[C@@H](Cc1c[nH]c2ccc(O)cc12)C(=O)O , state the outcome it received in this test.
Completion: label 0

Prompt: Given NC(=O)c1ncn([C@@H]2O[C@H](CO)[C@@H](O)[C@H]2O)c1O , state the outcome it received in this test.
Completion: label 0

Prompt: Given Cc1cnc(Nc2ccc(OCCN3CCCC3)cc2)nc1Nc1cccc(S(=O)(=O)NC(C)(C)C)c1 , state the outcome it received in this test.
Completion: label 1
